Below are molecules with their Delta G as measured on Dihydrofolate reductase (Enterococcus faecium).
Reply with a number, then the unit it belongs to.

Req: Query: Delta G; subject: Cc1c(NCc2ccc(C(=O)O)cc2)ccc2nc(N)nc(O)c12
Resp: -6.5 kcal

Req: Param item = CCOC(=O)c1ccc(CNc2ccc3nc(N)nc(N)c3c2)cc1 ; retrieve measured Delta G.
Resp: -11 kcal

Req: Delta G for Nc1nc(N)c2c(Sc3ccc4ccccc4c3)cccc2n1 ?
Resp: -10.9 kcal

Req: // query Delta G value for entry Cc1c(CNc2ccc(C(=O)O)cc2)ccc2nc(N)nc(N)c12
Resp: -11.8 kcal

Req: Recorded Delta G for Nc1nc(N)c2cc(Sc3cccc(C(F)(F)F)c3)ccc2n1 , please?
Resp: -13.4 kcal

Req: Fill in: Delta G of Nc1nc(N)c2c(S(=O)(=O)c3ccc(Cl)c(Cl)c3)cccc2n1 is ___
Resp: -9 kcal
